Assay: Cytotoxicity against mouse 88TAg fibroblasts assessed as compound level causing reduction of cell viability incubated for 2 hrs by MTT assay
assay.readout: Activity

compound	Activity
Cc1ccccc1Nc1nc2ccc([N+](=O)[O-])cc2nc1Nc1ccccc1C	<= 90%
CC1(C)NCCC12C(=O)N(Cc1ccccc1)c1ccccc12 (stereo not given)	Non-toxic
O=c1cc(-c2ccccc2O)oc2c1ccc1ccccc12	10 µM
C[C@H](C(=O)O)c1cccc(C(=O)c2ccccc2)c1	Non-toxic

Shift focus to the following entry.
-- ask Supply recorded Activity for `c1ccc2c(c1)c1ccccc1n2Cn1c2ccccc2c2ccccc21` here.
-- reply <= 90%
